Assay text: clinical
Measurement setup: human, plasma, inhaled or intranasal, 5 mg
Property label: Cmax
Answer format: value, then unit.

For `Cc1ncc2n1-c1ccc(Cl)cc1C(c1ccccc1F)=NC2` , what is its reported Cmax? 64.6 ng/mL

---

Assay text: Nasal administration of diazepam and midazolam preparations in two healthy volunteers
Measurement setup: human, blood, other: intranasal, 5 mg
Property label: Tmax (min)
Dear colleague, please return just the value in min, with no unit written.

For `Cc1ncc2n1-c1ccc(Cl)cc1C(c1ccccc1F)=NC2` , what is its reported Tmax? 20

All values here come from patent US20070208011A1.
